system: SN12C renal; assay: NCI tumour cell line growth inhibition, 48 h
Property Label: TGI

Report TGI for C=CCc1cccc(C=O)c1O please.
> 100 µM

Report TGI for OCC(O)COCn1cc(Cn2ncc3c(SCc4ccccc4)ncnc32)nn1 (centres undefined) please.
> 100 µM

Report TGI for CCOc1ccc(N(C)c2ccc(/C=C/C3=[N+](C)c4ccccc4C3(C)C)cc2)cc1 please.
1.52 µM

Report TGI for CCOC(=O)c1nc2ccccc2nc1Oc1cc(OC)cc(OC)c1 please.
> 100 µM

Report TGI for CN1C(=O)C(c2c[nH]c3ccccc23)=C(c2c[nH]c3ccccc23)C1=O please.
> 25 µM

Report TGI for C=CCC1(O)c2ccccc2C(=O)c2c(OCC(=O)OCC)ccc(OCC(=O)OCC)c21 (centres undefined) please.
> 100 µM

Report TGI for C/C(=N/NC(=O)c1ccccc1S(N)(=O)=O)C(CN1CCCCC1)C(C1=C(O)C2C=CC=CC2OC1=O)c1ccccc1 (centres undefined) please.
> 100 µM

Report TGI for COc1cccc2c1C(=O)c1c(O)c3c(c(O)c1C2=O)C[C@@](O)(C(=O)CO)CC3OC1CC(N(C)CCOCC(OC(C)=O)OC(C)=O)C(O)C(C)O1 (some centres undefined) please.
> 0.01 µM

Report TGI for ClC1=C(Cl)C(Cl)(C2(Cl)C(Cl)=C(Cl)C(Cl)=C2Cl)C(Cl)=C1Cl please.
3.8 µM

---

tested on: UACC-62 melanoma; assay: NCI tumour cell line growth inhibition, 48 h
Please provide measured TGI for the entries that follow.

Report TGI for C=C(Br)C(C)(Cl)CCC(Br)C(C)(C)Br (stereo unspecified) please.
> 100 µM

Report TGI for NC(N)NCCCc1cn2c(n1)C1CCCN1C(=O)C2Cc1ccccc1 (stereo unspecified) please.
> 100 µM

Report TGI for CCN(Cc1ccc(OC)cc1)c1ccc(CO)c(Cl)c1 please.
0.686 µM

Report TGI for CC(CN1NC12CCCC2)N1NC12CCCC2 (stereo unspecified) please.
> 100 µM

Report TGI for CCN1CCN(CCC(=O)Nc2cccc(-n3cc(-c4ccncc4)c(-c4ccc(Cl)c(OC)c4)n3)c2)CC1 please.
2.34 µM

Report TGI for NC1=C(O)c2cccc3cccc(c23)C1=O please.
> 100 µM

Report TGI for Cn1cc(-c2ccc3nc(-c4ccc(CC(=O)Nc5cc(C(C)(C)C)no5)cc4)cnc3c2)cn1 please.
> 3 µM

Report TGI for O=C(O)C(Cc1cc(I)c(O)c(I)c1)C1CCCCC1 (stereo unspecified) please.
> 100 µM

Report TGI for Cc1cn2cc(-c3cccs3)nc2s1 please.
> 100 µM

Report TGI for NS(=O)(=O)c1ccc(NC(=S)NC(=O)Nc2ccc(Cl)c(Cl)c2)cc1 please.
28.7 µM

Report TGI for O=C1c2ccccc2-c2nnc3c(c21)Cc1ccccc1C3 please.
> 10 µM

---

test system: HS 578T breast; experiment: NCI tumour cell line growth inhibition, 48 h
Property Label: TGI

Report TGI for COc1ccc2c(c1)[C@@H](NC(C)=O)CCc1cc(OC)c(OC)c(OC)c1-2 please.
> 100 µM

Report TGI for CC(C)(C)N(Cc1ccccc1)C(=O)/C=C\S(=O)c1ccccc1 (centres undefined) please.
7.19 µM

Report TGI for CC(C)=CCC[C@@H](C)[C@H]1CC[C@@]2(C)[C@@H]3CC[C@H]4C(C)(C)[C@@H](O)CC[C@@]45C[C@@]35CC[C@]12C please.
> 100 µM

Report TGI for N#CC1=C(N)Oc2c(sc3c(Br)cccc23)C1c1ccc([N+](=O)[O-])cc1 (centres undefined) please.
16.4 µM

Report TGI for CN(C)CCNc1ccc(NCC[N+](C)(C)Cc2ccc([N+](=O)[O-])cc2)c2c1C(=O)c1c(O)ccc(O)c1C2=O please.
> 100 µM

Report TGI for COCN1C(=O)[C@@H]2CCCN2C(=O)c2cc(OC)c(Cc3ccccc3)cc21 please.
> 100 µM

Report TGI for O=S(=O)(NCCCNc1cc(-c2cn(-c3ccccc3)nc2-c2cccc(O)c2)ccn1)c1ccc(C(F)(F)F)cc1 please.
5.77 µM

Report TGI for CN(Cc1cnc2nc(N)nc(N)c2n1)c1ccc(C(=O)NCCCS(=O)(=O)O)cc1 please.
> 100 µM

Report TGI for CN1C(=O)C(c2c[nH]c3ccccc23)=C(c2c[nH]c3ccccc23)C1=O please.
21.3 µM

Report TGI for COc1cccc(OC)c1C1ON=C(c2ccccc2)N1C12CC3CC(CC(C3)C1)C2 (centres undefined) please.
> 100 µM

Report TGI for Sc1cccc2cccnc12 please.
16.4 µM

Report TGI for C[N+]1(C)C2CC(OC(=O)C(CO)c3ccccc3)CC1C1OC12 (centres undefined) please.
> 100 µM

Report TGI for N=C(N)SCc1ccc2c(c1)S(=O)(=O)c1ccccc1O2 please.
78.7 µM

Report TGI for O=C1C=C(Nc2ccccc2)c2ccccc2C1=O please.
6.32 µM

Report TGI for CC(=O)OCC1OC(n2c3c(c(-c4ccc(C)cc4)c(C#N)c2=S)C(=O)CC(C)(C)C3)C(OC(C)=O)C(OC(C)=O)C1OC(C)=O (centres undefined) please.
> 100 µM

Report TGI for COc1cc(/C=C2\CC3C4CC=C5CC(OC(C)=O)CC[C@]5(C)C4CC[C@]3(C)C2=O)ccc1OCCN1CCCC1 (some centres undefined) please.
42.7 µM

Report TGI for C[N+]1([O-])C2CCC1CC(OC(=O)C(CO)c1ccccc1)C2 (centres undefined) please.
> 100 µM

Report TGI for O=C(O)c1ccccc1CN1CCCC(C(=O)O)C1 (centres undefined) please.
> 100 µM

Report TGI for C=CC1(C)CCC2C(=CCC3C2(C)CC(O)C(O)C3(C)COC2OC(CO)C(O)C(O)C2O)C1 (centres undefined) please.
> 100 µM

---

test system: DLD-1 colon; assay: NCI tumour cell line growth inhibition, 48 h
Please provide measured TGI for the entries that follow.

Report TGI for CC(=O)OCC1OC(N2C(=O)[C@@H](Oc3ccccc3)[C@H]2/C=C/c2ccccc2)C(OC(C)=O)C(OC(C)=O)C1OC(C)=O (stereo not given in full) please.
> 100 µM

Report TGI for N/N=c1/nc2n(c3ncccc13)C=CNN2 please.
> 100 µM

Report TGI for CC(=O)C1(O)CC2(c3ccccc3)C(=O)C1(c1ccccc1)C(c1ccccc1)=C2c1ccccc1 (stereo not given) please.
> 100 µM

Report TGI for NC(N)NCCCc1cn2c(n1)C1CCCN1C(=O)C2Cc1ccccc1 (stereo not given) please.
> 100 µM

Report TGI for O=C(Cc1ccccc1)NN1C(=O)C(Cl)C1c1ccc(Cl)cc1 (stereo not given) please.
> 100 µM

---

Please provide measured TGI for the entries that follow.
system: SN12C renal; assay: NCI tumour cell line growth inhibition, 48 h
Where a SMILES comes first, the peptide text is derived from it. Bridges are numbered along the chain shown (N, C = ends). The star is where a group is joined. Cbz = O=C(OCc1ccccc1)*

Report TGI for O=C(c1ccc2ccccc2c1)C1(I)S(=O)(=O)OCCOS1(=O)=O please.
> 100 µM

Report TGI for C/C(CN1C(=O)c2ccccc2C1=O)=N\NS(=O)(=O)c1ccc2ccccc2c1 please.
> 100 µM

Report TGI for Cn1cc(C2=C(c3ccsc3)C(=O)NC2=O)c2ccccc21 please.
> 25 µM

Report TGI for COc1ccc(-c2cc(N3CCN(c4ccc(Cl)cc4)CC3)c(C#N)c(=O)o2)cc1 please.
> 100 µM

Report TGI for COc1ccc(-c2csc3c2-n2cccc2C3=O)cc1 please.
> 100 µM

Report TGI for CCCc1nnc2sc(COc3ccc(OCc4nn5c(CCC)nnc5s4)c(Cl)c3)nn12 please.
> 100 µM

Report TGI for N=C(N)SCc1ccc2c(c1)S(=O)(=O)c1ccccc1O2 please.
> 100 µM

Report TGI for COc1cc2c(c3oc(-c4ccc(O)cc4)c(O)c(=O)c13)CCC(C)(C)O2 please.
0.884 µM

Report TGI for O=C1C(Cl)C(c2cccc([N+](=O)[O-])c2)N1n1cnc2ccccc2c1=O (stereo unspecified) please.
> 100 µM

Report TGI for COc1ccc(C(=O)C(C(=O)CCC(=O)Nc2ccc(Cl)c(Cl)c2)c2ccc(OC)cc2)cc1 (stereo unspecified) please.
> 100 µM

Report TGI for COC(=O)/C=C1\SC2(OC1=Nc1ccccc1)C1CC3CC(C1)CC2C3 (stereo unspecified) please.
> 100 µM

Report TGI for N#CC(C(=O)CCCC(=O)Nc1ccccc1[N+](=O)[O-])c1c(Cl)cccc1Cl (stereo unspecified) please.
> 100 µM

Report TGI for O=C1NN2CC(c3ccccc3)=NN=C2c2ccccc21 please.
78.3 µM

Report TGI for CNC(=O)C1CCCCNC(=O)CCC(NC(=O)OCc2ccccc2)C(=O)N1 (stereo not drawn) (Cbz-Glu-Lys-NHMe; lactam 1-2; configuration not given here) please.
> 100 µM

Report TGI for CCN(CC)CC(=O)NC1c2ccccc2Oc2ccccc21 please.
> 100 µM

Report TGI for C=C1CC[C@](C)(O)[C@@]2(C)CC[C@H]3C(=C(C)C)C(=O)C[C@]3(C)C[C@H]12 please.
> 50 µM

Report TGI for O=[N+]([O-])c1ccc(C2=NCCO2)cc1 please.
> 100 µM

Report TGI for Sc1cccc2cccnc12 please.
15.1 µM

Report TGI for COC(=NC(C)C)NC(C)C please.
> 100 µM

Report TGI for NS(=O)(=O)c1ccc(N(/C=C/C(=O)C(F)(F)F)CC(=O)c2ccc(F)cc2)cc1 please.
45.3 µM

Report TGI for CCOC(=O)CC1=N/C(=N/C(=N)N[N+](=O)[O-])SC1 please.
> 100 µM
